Data credit: paper PMC6465099

test: Clinical crossover study: iohexol clearance; format: in vivo, human; conditions: human, plasma, intravenous, 3235 mg
VALUE_TYPE: clearance (mL/min)
Give the value, in units of mL/min, as a plain number.

Quick one: clearance for CC(=O)N(CC(O)CO)c1c(I)c(C(=O)NCC(O)CO)c(I)c(C(=O)NCC(O)CO)c1I (stereo not shown) [iohexol] ?
89

* * *

test: Clinical crossover study: iohexol clearance; format: in vivo, human; settings: human, plasma, intravenous
VALUE_TYPE: clearance
I'd appreciate it if you included the unit after the number.

Quick one: clearance for CC(=O)N(CC(O)CO)c1c(I)c(C(=O)NCC(O)CO)c(I)c(C(=O)NCC(O)CO)c1I (stereo not shown) [iohexol] ?
85.6 mL/min
